Assay: qHTS assay to identify small molecule agonists of the estrogen related receptor signaling pathway with the pleiotropic PPARgamma coactivator (PGC) (AID 1224823); also: % is scaled to controls: 0 for no effect and ±100 for the full control effect
Conditions: ERR/PGC reporter cell line, luciferase agonist mode; series mostly up to 46.1 µM
Inconclusive results are not listed. Active and inactive are the calls of the source. Calls follow the shape of the dose curve; as a rule, active = well fitted activation curve with a large enough effect in the repeat runs; inconclusive = weak or mixed curves; inactive = no such curve, though single readings can be large or run the other way.
Returns: one label drawn from 1 (yes) (active), 0 (no) (inactive)

Before answering, review these 5 worked examples.
compound	label
C=CC[C@H](N)C(=O)O	0 (no)
O=C(OCCN1CCOCC1)C1(c2ccccc2)CCCCC1	0 (no)
CC1CNCCN1S(=O)(=O)c1cccc2cnccc12 (stereo unspecified)	0 (no)
NC1CCN(O)C1=O (stereo unspecified)	0 (no)
CC[C@H]1OC(=O)[C@H](C)[C@@H](O[C@H]2C[C@@](C)(OC)[C@@H](O)[C@H](C)O2)[C@H](C)[C@@H](O[C@@H]2O[C@H](C)C[C@H](NC)[C@H]2O)[C@](C)(O)C[C@@H](C)CN(C)[C@H](C)[C@@H](O)[C@]1(C)O	0 (no)

Q: For this compound, state the assay outcome: CC(C)(C)c1ccc(/C=C/C(=O)Nc2ccc3c(c2)OCCO3)cc1
A: 0 (no)

Q: For this compound, state the assay outcome: O=S(=O)(c1cccc2c(I)cccc12)N1CCCNCC1
A: 0 (no)

###

Test: A CellTox Green Cytotoxicity Assay to monitor cytotoxicity in HepG2 cells - 32 hour (AID 1224883); also: % is scaled to controls: 0 for no effect and ±100 for the full control effect; nearly all actives have a fitted effect of over 50% in size
Conditions: CellTox Green fluorescence; series mostly up to 76.8 µM
Records with an inconclusive call do not appear. Calls of active or inactive are those of the source. Calls come from the whole dose curve; as a rule, active = well fitted activation curve with a large enough effect in the repeat runs; inconclusive = weak or mixed curves; inactive = flat fitted curve, though single readings scatter.
Assignment: determine reported cytotoxicity increase for the given compounds.

A selection of reference data follows.
chemical structure	readout	val
CCCCNc1ccc(NCCCC)c2c1C(=O)c1ccccc1C2=O	cytotoxicity increase	-3.73% [at 15.8 µM] (inactive)
COc1cc(C(C)C)ccc1C	cytotoxicity increase	-14.3% [at 15.8 µM] (inactive)
O=C(O)CN(CCCN(CC(=O)O)CC(=O)O)CC(=O)O	cytotoxicity increase	-13.5% [at 15.8 µM] (inactive)

Moving on to the next compound.
Q: Give the reported cytotoxicity increase for this compound. COc1cc2ncnc(Nc3cccc(Cl)c3)c2cc1OC
A: -17.4% [at 15.8 µM] (inactive)

###

Assay: qHTS RealTime-Glo MT Cell Viability Assay in HEK293 cells - 24 hour (AID 1224886); also: nearly all actives have a fitted effect of over 50% in size
Details: RealTime-Glo luminescence; series mostly up to 76.8 µM
Inconclusive results are not listed. Calls of active or inactive are those of the source. The call rests on the fitted dose curve; in most records, active means well fitted cell-killing curve with a large enough effect in the repeat runs; inconclusive means weak or mixed curves, or effect the other way; inactive means flat fitted curve, though single readings scatter.
Returns: one label drawn from True = active, False = inactive

Before answering, review these 6 worked examples.
compound	label
N#CCCOCCC#N	False
c1ccc(-c2ccccc2-c2ccccc2)cc1	False
CC(C)=CCC[C@H](C)CC=O	False
O=C1CCCCCCCCCCCCCC1	False
Nc1ccc2c(S(=O)(=O)O)cccc2c1S(=O)(=O)O	False
[Cl][Dy]([Cl])[Cl]	False

Q: For this compound, state the assay outcome: CCOC=C(C(=O)OCC)C(=O)OCC
A: False

Q: For this compound, state the assay outcome: CC(C)(C)c1ccc(OC2CCCCC2O)cc1 (stereo unspecified)
A: True

###

Test: qHTS assay to identify small molecule agonists of the estrogen related receptor (ERR) signaling pathway (AID 1224820)
Conditions: ERR reporter cell line, luciferase agonist mode; series mostly up to 46.1 µM
Protocol: National Center for Advancing Translational Sciences [NCATS] NIH Chemical Genomics Center [NCGC] U.S. Environmental Protection Agency [EPA] National Institutes of Environmental Health Sciences [NIEHS] National Toxicology Program [NTP] […] The ERR cells were dispensed at 2,000 cells/5 ul/well in 1536-well white plates using a Multidrop dispenser. […] After 30 min incubation at room temperature, the luminescence intensity in the plates was measured using a ViewLux plate reader.
Records with an inconclusive call do not appear. Active and inactive are the calls of the source. Calls come from the whole dose curve; as a rule, active = well fitted activation curve with a large enough effect in the repeat runs; inconclusive = weak or mixed curves; inactive = no such curve, though single readings can be large or run the other way.
Returns: one label drawn from true (active), false (inactive)

Q: For this molecule, state the assay outcome: Nc1ccc(-c2ccc3ccccc3n2)cc1
A: true

Reference source: PubChem BioAssay (Tox21)
